Data origin: patent US11420967B2

target: cannabinoid CB1 receptor (hCB1) (Homo sapiens, UniProt P21554); construct: expressed in transfected cells; host or cells: HEK293; experiment: β-arrestin recruitment in hCB1-transfected HEK293 cells; type: cell-based
Sequence (P21554 whole entry): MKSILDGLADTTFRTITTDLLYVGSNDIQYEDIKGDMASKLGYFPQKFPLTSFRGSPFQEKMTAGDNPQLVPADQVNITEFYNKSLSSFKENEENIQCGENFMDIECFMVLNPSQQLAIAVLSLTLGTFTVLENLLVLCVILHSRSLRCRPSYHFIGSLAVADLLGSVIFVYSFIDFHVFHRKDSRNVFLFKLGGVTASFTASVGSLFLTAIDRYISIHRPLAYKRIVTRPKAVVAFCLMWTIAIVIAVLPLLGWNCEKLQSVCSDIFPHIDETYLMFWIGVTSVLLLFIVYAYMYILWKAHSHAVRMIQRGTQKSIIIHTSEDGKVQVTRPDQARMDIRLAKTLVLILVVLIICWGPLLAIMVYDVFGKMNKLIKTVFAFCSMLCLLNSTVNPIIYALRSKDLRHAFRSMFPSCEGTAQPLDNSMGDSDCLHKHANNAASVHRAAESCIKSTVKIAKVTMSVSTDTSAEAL
measuredAttribute: EC50

Query: Value lookup for EC50; key = `CCn1c2ccccc2c2cc(C(=O)c3ccc(C)c4ccccc34)ccc21`
Reply: 2260 nM
